Source of measurements: ChEMBL document CHEMBL3822420

# Tested on: Staphylococcus epidermidis
# EXPERIMENT: Antibacterial activity against methicillin-resistant Staphylococcus epidermidis 14-1
# Format: functional
READOUT KIND: MIC (µg/mL)

{"columns": ["MOLECULE", "REPORTED"],
 "data": [
  ["CCCC[C@H](CN(O)C=O)C(=O)N1CC2(CC2)C[C@H]1C(=O)Nc1nccc(-c2cccnc2)n1", 0.25],
  ["Cc1nc(NNC(=O)[C@H](CC2CCCC2)CN(O)C=O)c(F)c(N2CCN3CCOC[C@@H]3C2)n1", 0.125],
  ["CCCC[C@H](CN(O)C=O)C(=O)N1CC2(CC2)C[C@H]1C(=O)Nc1cccc(Nc2ncccn2)c1", 0.125],
  ["CCCC[C@H](CN(O)C=O)C(=O)N1CC2(CC2)C[C@H]1C(=O)Nc1cc(C(C)(C)C)on1", 0.03],
  ["C[C@H]1COc2c(N3CCN(C)CC3)c(F)cc3c(=O)c(C(=O)O)cn1c23.C[C@H]1COc2c(N3CCN(C)CC3)c(F)cc3c(=O)c(C(=O)O)cn1c23.O", 16],
  ["CCCC[C@H](CN(O)C=O)C(=O)N1CC2(CC2)C[C@H]1c1nnc2ccccn12", 0.5],
  ["CCCC[C@H](CN(O)C=O)C(=O)N1CC2(CC2)C[C@H]1c1nc(-c2cccnc2)no1", 0.25],
  ["CCCC[C@H](CN(O)C=O)C(=O)N1CCC[C@H]1C(=O)Nc1ccc(F)c[n+]1[O-]", 0.125],
  ["CCCC[C@H](CN(O)C=O)C(=O)N1CC2(CC2)C[C@H]1C(=O)Nc1cc[nH]n1", 8],
  ["CO/N=C(\\C(=O)N[C@@H]1C(=O)N2C(C(=O)[O-])=CCS[C@H]12)c1csc(N)n1.[Na+] [CEFTIZOXIME SODIUM]", 128],
  ["CCCC[C@H](CN(O)C=O)C(=O)N1CC2(CC2)C[C@H]1c1nc2ccccc2[nH]1", 1]
]}

---

# System: Escherichia coli
# EXPERIMENT: Antibacterial activity against Escherichia coli 14-1
# Type: functional

{"columns": ["MOL", "BOUND SIGN", "MIC / mg/L"],
 "data": [
  ["CCCC[C@H](CN(O)C=O)C(=O)N1CC2(CC2)C[C@H]1c1nnc2ccccn12", "=", 128],
  ["CCCC[C@H](CN(O)C=O)C(=O)N1CC2(CC2)C[C@H]1c1nc(-c2cccnc2)no1", "=", 64],
  ["CCCC[C@H](CN(O)C=O)C(=O)N1CC2(CC2)C[C@H]1C(=O)Nc1ccc(F)c[n+]1[O-]", "=", 128],
  ["CCCC[C@H](CN(O)C=O)C(=O)N1CCC[C@H]1C(=O)Nc1ccc(F)c[n+]1[O-]", "=", 64],
  ["CCCC[C@H](CN(O)C=O)C(=O)N1CC2(CC2)C[C@H]1C(=O)Nc1cc[nH]n1", ">", 128],
  ["CCCC[C@H](CN(O)C=O)C(=O)N1CC2(CC2)C[C@H]1c1nc2ccccc2[nH]1", "=", 32],
  ["CCCC[C@H](CN(O)C=O)C(=O)N1CC2(CC2)C[C@H]1C(=O)Nc1cccc(Nc2ncccn2)c1", "=", 128],
  ["CCCC[C@H](CN(O)C=O)C(=O)N1CC2(CC2)C[C@H]1C(=O)Nc1ncccc1F", ">", 64],
  ["CCCC[C@H](CN(O)C=O)C(=O)N1CC2(CC2)C[C@H]1C(=O)Nc1nccc(-c2cccnc2)n1", ">", 64]
]}
